- target-or-test-system: Dipeptidyl peptidase 4 (Homo sapiens, UniProt P27487)
- Sequence (P27487 whole entry): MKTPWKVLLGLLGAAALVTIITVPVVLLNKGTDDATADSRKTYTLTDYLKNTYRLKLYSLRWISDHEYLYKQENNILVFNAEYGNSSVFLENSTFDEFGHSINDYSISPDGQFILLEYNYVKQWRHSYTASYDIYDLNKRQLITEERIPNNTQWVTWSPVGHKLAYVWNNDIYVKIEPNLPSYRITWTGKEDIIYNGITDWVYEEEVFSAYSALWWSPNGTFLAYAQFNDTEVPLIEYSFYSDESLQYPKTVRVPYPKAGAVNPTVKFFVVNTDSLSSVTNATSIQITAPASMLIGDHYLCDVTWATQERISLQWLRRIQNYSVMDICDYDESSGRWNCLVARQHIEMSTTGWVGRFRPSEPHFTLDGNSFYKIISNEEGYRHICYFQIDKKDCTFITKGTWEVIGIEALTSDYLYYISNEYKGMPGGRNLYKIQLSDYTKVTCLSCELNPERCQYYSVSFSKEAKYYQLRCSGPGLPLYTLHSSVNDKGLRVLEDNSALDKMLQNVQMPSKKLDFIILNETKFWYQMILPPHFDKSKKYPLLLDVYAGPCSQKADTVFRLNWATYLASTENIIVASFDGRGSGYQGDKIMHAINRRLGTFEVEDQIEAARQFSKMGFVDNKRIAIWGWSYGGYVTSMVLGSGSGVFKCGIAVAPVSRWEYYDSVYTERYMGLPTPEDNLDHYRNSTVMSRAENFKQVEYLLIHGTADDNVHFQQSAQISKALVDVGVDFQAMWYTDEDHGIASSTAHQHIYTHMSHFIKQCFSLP
- method-notes: Inhibitory activity against human recombinant Dipeptidylpeptidase IV
pIC50: −log10 of the molar value.
recorded-endpoint: pIC50

See these solved cases before continuing.
CS(=O)(=O)c1ccc(S(=O)(=O)N[C@H]2CC[C@H]([C@H](N)C(=O)N3CCCC3)C2)cc1; 6.89
N[C@H](C(=O)N1CCCC1)[C@H]1CC[C@@H](NC(=O)c2cccc3ccccc23)C1; 6.64
COc1ccc(NC(=O)O[C@@H]2CC[C@H]([C@H](N)C(=O)N3CCSC3)C2)cc1; 6.62
COc1ccc(NC(=O)O[C@@H]2CCC[C@H]([C@H](N)C(=O)N3CCSC3)C2)cc1; 7.08
N[C@H](C(=O)N1CCCC1)[C@H]1CC[C@H](OC(=O)Nc2ccc(I)cc2)C1; 6.74

[I] N[C@H](C(=O)N1CCCC1)[C@@H]1CC[C@H](NC(=O)Nc2cccc3ccccc23)C1
[II] N[C@H](C(=O)N1CCCC1)[C@H]1CC[C@H](NS(=O)(=O)c2ccc(C(=O)O)cc2)C1
[III] N[C@H](C(=O)N1CCCC1)[C@@H]1CC[C@H](NS(=O)(=O)c2ccc(S(N)(=O)=O)cc2)C1
[IV] CS(=O)(=O)c1ccccc1S(=O)(=O)N[C@H]1CC[C@H]([C@H](N)C(=O)N2CCCC2)C1
[V] N[C@H](C(=O)N1CCCC1)[C@H]1CC[C@@H](OC(=O)Nc2ccccc2-c2ccccc2)C1
Place the items in sequence of falling pIC50. Your task in answering is to list the labels in the requested order.
II, IV, III, I, V

----------
- target-or-test-system: Dipeptidyl peptidase 4 (Homo sapiens)
- method-notes: Inhibitory activity against human recombinant Dipeptidylpeptidase IV
pIC50: −log10 of the molar value.
recorded-endpoint: pIC50

[a] N[C@H](C(=O)N1CCSC1)[C@H]1CC[C@H](NC(=O)Nc2cccc3ccccc23)C1
[b] N[C@H](C(=O)N1CCCC1)[C@@H]1CC[C@@H](NC(=O)Nc2cccc3ccccc23)C1
[c] COc1ccc(NC(=O)O[C@@H]2CC[C@H]([C@H](N)C(=O)N3CCCC3)C2)cc1
[d] N[C@H](C(=O)N1CCCC1)[C@H]1CC[C@@H](O)C1
[e] CS(=O)(=O)c1ccc(S(=O)(=O)N[C@H]2CC[C@@H]([C@H](N)C(=O)N3CCCC3)C2)cc1
Please arrange the 5 compounds above from largest to smallest pIC50 value. Note for the reader: the ranking is given by listing the labels in the order requested.
a, b, e, c, d

----------
- target-or-test-system: Prolyl endopeptidase (Homo sapiens)
- Sequence (P48147 whole entry): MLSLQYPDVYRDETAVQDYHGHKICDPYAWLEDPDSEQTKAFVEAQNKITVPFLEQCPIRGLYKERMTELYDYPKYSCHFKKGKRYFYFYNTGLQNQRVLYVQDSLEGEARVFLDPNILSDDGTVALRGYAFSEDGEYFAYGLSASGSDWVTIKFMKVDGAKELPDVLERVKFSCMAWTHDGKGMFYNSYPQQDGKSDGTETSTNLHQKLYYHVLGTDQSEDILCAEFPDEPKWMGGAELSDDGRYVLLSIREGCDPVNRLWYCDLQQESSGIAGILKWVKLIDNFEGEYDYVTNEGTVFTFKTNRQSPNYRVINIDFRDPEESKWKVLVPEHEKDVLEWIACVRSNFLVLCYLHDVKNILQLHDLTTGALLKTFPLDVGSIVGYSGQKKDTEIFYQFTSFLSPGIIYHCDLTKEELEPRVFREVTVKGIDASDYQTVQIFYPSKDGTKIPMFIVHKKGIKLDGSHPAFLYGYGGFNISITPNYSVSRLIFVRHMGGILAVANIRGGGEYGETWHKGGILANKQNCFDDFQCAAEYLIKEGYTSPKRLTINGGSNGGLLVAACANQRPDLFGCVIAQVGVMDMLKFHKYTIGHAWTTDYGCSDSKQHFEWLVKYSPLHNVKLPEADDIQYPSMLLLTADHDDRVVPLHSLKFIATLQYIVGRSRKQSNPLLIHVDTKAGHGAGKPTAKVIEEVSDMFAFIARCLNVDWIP
- method-notes: Inhibitory activity against human prolylendopeptidase
pIC50: −log10 of the molar value.
recorded-endpoint: pIC50

Entry "N[C@H](C(=O)N1CCCC1)[C@H]1CCC[C@H](O)C1" , system Prolyl endopeptidase (Homo sapiens): what pIC50 was measured?
< 4.00

Origin of values: ChEMBL document CHEMBL1148427
